- protocol-text: Parallel artificial membrane permeability assay
- Type: in vitro ADME
- condition-context: PAMPA, pH 7.4
measured-attribute: Papp at 24 h, 0.2 mM (×10⁻⁶ cm/s)
Give bare numbers, in ×10⁻⁶ cm/s.

Recorded Papp at 24 h, 0.2 mM for COc1cc2c(NC3CCN(C(C)C)CC3)nc(C3CCCCC3)nc2cc1OCCCN1CCCC1 , please? 0.049
